# assay-comment: yeast display, Sf9 membrane polyspecificity reagent, FACS + sequencing; frameworks hold sequencing errors
attribute-measured: polyreactivity (PSR sort gate)

Below, each entry is followed by its recorded polyreactivity (PSR sort gate) result.
query-sequence | result
QVQLVESGGGLDQAGGSLRLSCAATGGTFTRKAMGWYRQAPGKERELVASITSGDTTNYADSVKGRFTISRDNAKNTVYLQMNSLKPEDTAVYYCATDTPTDRYAAYPHDPYYYWGQGTQVTVSS | low polyreactivity
QVQLVESGGGLVQAGGSLRISCAASGSIFPRYAMGWYRQAPGKERELVAAISWRGGRTYYADSVKGRFTISRDNAKNTVYLQMNSLKPEDTAVYYCAARWRQRKSVRYGQQGYDYWGQGTQVTVSS | high polyreactivity
QVQLVESGGGLVQAGGSLRLSCAASGFTFKYYAMGWYRQAPGKERELVAAITKRGGSTYYADSVKGRFTISRDNAKNTVYLQMNSLKPEDTEVYYCAAYYKSTYVPGDYWGQGTQVTVSS | high polyreactivity
QVQLVETGGGLVQAGGSLSLSCAASGSTFAYYAMGWYRQAPGKERELVAGITWTGGSTYYADSVKGRFTISRDNAKNTVYLQMNSLKPEDTAVYYCAVTYPYGYEYDHWGQGTQVTVSS | low polyreactivity

Request: Report polyreactivity (PSR sort gate) for QVQLVASGGGLVQAGGSLRLSCAASGGTLDYYVMGWYRQAPGKERELVAAISTNGGSTNYADSVKGRFTISRDNAKNTVYLQMNSLKPEDTAVYYCAATSDVYVFLEFDYWGQGTQVTVSS please.
Response: low polyreactivity
